Origin of measurements: patent US7947717B2

Biological target: hERG (Homo sapiens)
Sequence (Q12809 whole entry): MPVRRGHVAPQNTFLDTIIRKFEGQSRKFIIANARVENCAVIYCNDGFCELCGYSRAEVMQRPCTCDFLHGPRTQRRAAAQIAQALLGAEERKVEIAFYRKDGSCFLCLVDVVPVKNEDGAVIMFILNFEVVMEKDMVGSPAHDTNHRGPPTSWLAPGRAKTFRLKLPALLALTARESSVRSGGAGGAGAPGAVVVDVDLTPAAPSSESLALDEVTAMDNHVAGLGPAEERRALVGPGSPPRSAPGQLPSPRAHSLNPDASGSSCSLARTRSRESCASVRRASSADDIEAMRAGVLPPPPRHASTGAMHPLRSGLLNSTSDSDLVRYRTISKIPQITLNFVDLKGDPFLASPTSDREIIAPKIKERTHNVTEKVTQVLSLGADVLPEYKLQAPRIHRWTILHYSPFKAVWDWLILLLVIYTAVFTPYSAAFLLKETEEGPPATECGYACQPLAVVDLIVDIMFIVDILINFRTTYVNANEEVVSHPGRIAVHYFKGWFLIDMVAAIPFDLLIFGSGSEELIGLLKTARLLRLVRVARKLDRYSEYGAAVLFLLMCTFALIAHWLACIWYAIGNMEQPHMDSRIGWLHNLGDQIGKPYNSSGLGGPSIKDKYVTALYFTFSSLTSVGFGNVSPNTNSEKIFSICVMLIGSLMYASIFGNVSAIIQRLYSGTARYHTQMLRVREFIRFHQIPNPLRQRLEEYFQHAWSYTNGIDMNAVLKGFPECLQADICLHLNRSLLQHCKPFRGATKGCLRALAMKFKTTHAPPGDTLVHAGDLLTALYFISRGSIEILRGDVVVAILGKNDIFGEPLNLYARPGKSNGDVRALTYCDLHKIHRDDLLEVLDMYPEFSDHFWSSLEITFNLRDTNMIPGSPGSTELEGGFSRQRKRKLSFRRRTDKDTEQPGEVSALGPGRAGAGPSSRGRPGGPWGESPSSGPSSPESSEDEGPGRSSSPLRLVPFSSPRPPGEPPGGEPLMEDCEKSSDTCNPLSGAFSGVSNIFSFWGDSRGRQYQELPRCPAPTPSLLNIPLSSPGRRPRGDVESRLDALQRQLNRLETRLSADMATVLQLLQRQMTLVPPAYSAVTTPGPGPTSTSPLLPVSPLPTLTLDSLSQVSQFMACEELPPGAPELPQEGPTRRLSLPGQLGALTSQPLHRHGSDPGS
Test: in vitro
experimentalEndpoint: inhibition at 30 µM
Record the result as a number with its unit.

As a guide, the following entries are already answered.
INSERT INTO measurements (molecule, experimentalendpoint, result) VALUES
  ('COc1ccc(-c2ccc(/C=C3\SC(=S)N(CC(=O)O)C3=O)o2)cc1Cl [Compound 1]', 'inhibition at 30 µM', '58%'),
  ('O=C(O)CN1C(=O)/C(=C/c2ccc(-c3cc(C(F)(F)F)ccc3Cl)o2)SC1=S [Compound 65]', 'inhibition at 30 µM', '45%'),
  ('O=C(O)CN1C(=O)/C(=C/c2ccc(-c3ccc(Cl)c(Cl)c3)o2)SC1=S [Compound 64]', 'inhibition at 30 µM', '67%');

Supply measured inhibition at 30 µM of O=C(O)CN1C(=O)/C(=C/c2ccc(-c3cccs3)s2)SC1=S [Compound 66] in your reply.
29%
